Tested on: 695427-040-R-J1-PDC complex spheroid viability
Experiment: Anticancer human tumor 695427-040-R-J1-PDC patient-derived colon adenocarcinoma cell line growth inhibition [RAS]
Conditions: second compound 0.3 µM; first compound 0.000949 µM; stronger effect = lower value
Entries and their viability, T/C

compound	viability, T/C [%]
CC1(C)CCC(Nc2ncc(C(F)(F)F)c(-c3c[nH]c4c(P(C)(C)=O)c(C#N)ccc34)n2)CN1 (centres undefined) + CCn1c(-c2cccnc2C(C)OC)c2c3cc(ccc31)N1CCOC(CC(NC(=O)C(C(C)C)N(C)C(=O)C3(F)CCN(C(=O)C#CC(C)(C)N(C)C)CC3)C(=O)N3CCCC(N3)C(=O)OCC(C)(C)C2)C1	75.7
CCc1c2c(nc3ccc(O)cc13)-c1cc3c(c(=O)n1C2)COC(=O)[C@]3(O)CC + CCn1c(-c2cc(N3CCN(C)CC3)cnc2C(C)OC)c2c3cc(ccc31)-c1csc(n1)CC(NC(=O)C1CC1C)C(=O)N1CCCC(N1)C(=O)OCC(C)(C)C2	38.1
CC1(C)CCC(Nc2ncc(C(F)(F)F)c(-c3c[nH]c4c(P(C)(C)=O)c(C#N)ccc34)n2)CN1 (centres undefined) + CCn1c(-c2cc(N3CCN(C)CC3)cnc2C(C)OC)c2c3cc(ccc31)-c1csc(n1)CC(NC(=O)C1CC1C)C(=O)N1CCCC(N1)C(=O)OCC(C)(C)C2	34.7
CCc1c2c(nc3ccc(O)cc13)-c1cc3c(c(=O)n1C2)COC(=O)[C@]3(O)CC + CCn1c(-c2cccnc2C(C)OC)c2c3cc(ccc31)N1CCOC(CC(NC(=O)C(C(C)C)N(C)C(=O)C3(F)CCN(C(=O)C#CC(C)(C)N(C)C)CC3)C(=O)N3CCCC(N3)C(=O)OCC(C)(C)C2)C1	82.7

* * *

Test system: 695427-040-R-J1-PDC complex spheroid viability
Test: Anticancer human tumor 695427-040-R-J1-PDC cell line growth inhibition [RAS];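 further: viability read after seven days of drug exposure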
Conditions: curve of first compound; second compound 0.03 µM
Entries and their log10(IC50)
readout: log10(IC50) (log10 of the value in µM)

compound	assay-result
CCN1CCN(Cc2ccc(Nc3ncc(F)c(-c4cc(F)c5nc(C)n(C(C)C)c5c4)n3)nc2)CC1 + CCn1c(-c2cc(N3CCN(C)CC3)cnc2C(C)OC)c2c3cc(ccc31)-c1csc(n1)CC(NC(=O)C1CC1C)C(=O)N1CCCC(N1)C(=O)OCC(C)(C)C2	-1.12
CCc1c2c(nc3ccc(O)cc13)-c1cc3c(c(=O)n1C2)COC(=O)[C@]3(O)CC + CCn1c(-c2cc(N3CCN(C)CC3)cnc2C(C)OC)c2c3cc(ccc31)-c1csc(n1)CC(NC(=O)C1CC1C)C(=O)N1CCCC(N1)C(=O)OCC(C)(C)C2	-2.11
C=CC(=O)Nc1cc(Nc2nccc(-c3cn(C)c4ccccc34)n2)c(OC)cc1N(C)CCN(C)C + CCn1c(-c2cc(N3CCN(C)CC3)cnc2C(C)OC)c2c3cc(ccc31)-c1csc(n1)CC(NC(=O)C1CC1C)C(=O)N1CCCC(N1)C(=O)OCC(C)(C)C2	-1.35
Nc1ccn(C2OC(CO)C(O)C2(F)F)c(=O)n1 (stereo not given) + CCn1c(-c2cc(N3CCN(C)CC3)cnc2C(C)OC)c2c3cc(ccc31)-c1csc(n1)CC(NC(=O)C1CC1C)C(=O)N1CCCC(N1)C(=O)OCC(C)(C)C2	-0.95
CCC(CC)c1cc(NC2CCC(N)C2)n2nccc2n1 (stereo not given) + CCn1c(-c2cccnc2C(C)OC)c2c3cc(ccc31)N1CCOC(CC(NC(=O)C(C(C)C)N(C)C(=O)C3(F)CCN(C(=O)C#CC(C)(C)N(C)C)CC3)C(=O)N3CCCC(N3)C(=O)OCC(C)(C)C2)C1	0.28
CCC(CC)c1cc(NC2CCC(N)C2)n2nccc2n1 (stereo not given) + CCn1c(-c2cc(N3CCN(C)CC3)cnc2C(C)OC)c2c3cc(ccc31)-c1csc(n1)CC(NC(=O)C1CC1C)C(=O)N1CCCC(N1)C(=O)OCC(C)(C)C2	0.08
CCc1c2c(nc3ccc(O)cc13)-c1cc3c(c(=O)n1C2)COC(=O)[C@]3(O)CC + CCn1c(-c2cccnc2C(C)OC)c2c3cc(ccc31)N1CCOC(CC(NC(=O)C(C(C)C)N(C)C(=O)C3(F)CCN(C(=O)C#CC(C)(C)N(C)C)CC3)C(=O)N3CCCC(N3)C(=O)OCC(C)(C)C2)C1	-1.16
NC1c2ccccc2OC12CCN(c1cnc3c(N4CCCc5ncccc54)n[nH]c3n1)CC2 (stereo not given) + CCn1c(-c2cccnc2C(C)OC)c2c3cc(ccc31)N1CCOC(CC(NC(=O)C(C(C)C)N(C)C(=O)C3(F)CCN(C(=O)C#CC(C)(C)N(C)C)CC3)C(=O)N3CCCC(N3)C(=O)OCC(C)(C)C2)C1	-0.21

* * *

System: 695427-040-R-J1-PDC complex spheroid viability
Assay: Anticancer human tumor 695427-040-R-J1-PDC cell line growth inhibition [RAS];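 further: viability read after seven days of drug exposure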;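 on viability, T/C: 100% = DMSO vehicle control viability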
Conditions: second compound 0.3 µM; first compound 0.0316 µM; stronger effect = lower value

compound	unit-annotation	viability, T/C
CCC(CC)c1cc(NC2CCC(N)C2)n2nccc2n1 (configuration not stated) + CCn1c(-c2cccnc2C(C)OC)c2c3cc(ccc31)N1CCOC(CC(NC(=O)C(C(C)C)N(C)C(=O)C3(F)CCN(C(=O)C#CC(C)(C)N(C)C)CC3)C(=O)N3CCCC(N3)C(=O)OCC(C)(C)C2)C1	%	85.3
CC(C)n1nc(-c2ccc3oc(N)nc3c2)c2c(N)ncnc21 + CCn1c(-c2cccnc2C(C)OC)c2c3cc(ccc31)N1CCOC(CC(NC(=O)C(C(C)C)N(C)C(=O)C3(F)CCN(C(=O)C#CC(C)(C)N(C)C)CC3)C(=O)N3CCCC(N3)C(=O)OCC(C)(C)C2)C1	%	64.5

* * *

Entries and their viability, T/C
Tested on: 695427-040-R-J1-PDC complex spheroid viability
Experiment: Anticancer human tumor 695427-040-R-J1-PDC cell line growth inhibition [RAS];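 further: viability read after seven days of drug exposure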;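 on viability, T/C: 100% = DMSO vehicle control viability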
Details: second compound 0.0949 µM; first compound 0.3 µM; stronger effect = lower value

compound	viability, T/C [%]
CC1(C)CCC(Nc2ncc(C(F)(F)F)c(-c3c[nH]c4c(P(C)(C)=O)c(C#N)ccc34)n2)CN1 (centres undefined) + CCn1c(-c2cc(N3CCN(C)CC3)cnc2C(C)OC)c2c3cc(ccc31)-c1csc(n1)CC(NC(=O)C1CC1C)C(=O)N1CCCC(N1)C(=O)OCC(C)(C)C2	40.3
CCc1c2c(nc3ccc(O)cc13)-c1cc3c(c(=O)n1C2)COC(=O)[C@]3(O)CC + CCn1c(-c2cc(N3CCN(C)CC3)cnc2C(C)OC)c2c3cc(ccc31)-c1csc(n1)CC(NC(=O)C1CC1C)C(=O)N1CCCC(N1)C(=O)OCC(C)(C)C2	20.5
CCc1c2c(nc3ccc(O)cc13)-c1cc3c(c(=O)n1C2)COC(=O)[C@]3(O)CC + CCn1c(-c2cccnc2C(C)OC)c2c3cc(ccc31)N1CCOC(CC(NC(=O)C(C(C)C)N(C)C(=O)C3(F)CCN(C(=O)C#CC(C)(C)N(C)C)CC3)C(=O)N3CCCC(N3)C(=O)OCC(C)(C)C2)C1	24.2
CC1(C)CCC(Nc2ncc(C(F)(F)F)c(-c3c[nH]c4c(P(C)(C)=O)c(C#N)ccc34)n2)CN1 (centres undefined) + CCn1c(-c2cccnc2C(C)OC)c2c3cc(ccc31)N1CCOC(CC(NC(=O)C(C(C)C)N(C)C(=O)C3(F)CCN(C(=O)C#CC(C)(C)N(C)C)CC3)C(=O)N3CCCC(N3)C(=O)OCC(C)(C)C2)C1	80.2

* * *

Entries and their viability, T/C
Tested on: 695427-040-R-J1-PDC complex spheroid viability
Experiment: Anticancer human tumor 695427-040-R-J1-PDC cell line growth inhibition [RAS];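 further: viability read after seven days of drug exposure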;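 on viability, T/C: 100% = DMSO vehicle control viability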
Conditions: second compound 0.003 µM; first compound 0.1 µM; stronger effect = lower value
Excerpt: RAS pathway inhibitors in Combinations in Complex Spheroids A high-throughput screen of multi-cell type tumor spheroids was designed to identify active combinations of RAS pathway inhibitors and targeted small molecules. Complex spheroids include a stromal component modeled by human endothelial cells (HUVEC) and fibroblasts modeled by human mesenchymal stem cells (MSCs). […] Compounds. […] If the clinical Cmax for an agent had not been determined, the highest concentration tested was 10 microM. […]

molecule	viability, T/C (%)
CC1(O)CCCC1n1c(=O)c(C(F)F)cc2cnc(NC3CCN(S(C)(=O)=O)CC3)nc21 (configuration not stated) + CCn1c(-c2cc(N3CCN(C)CC3)cnc2C(C)OC)c2c3cc(ccc31)-c1csc(n1)CC(NC(=O)C1CC1C)C(=O)N1CCCC(N1)C(=O)OCC(C)(C)C2	92.8
CC1(O)CCCC1n1c(=O)c(C(F)F)cc2cnc(NC3CCN(S(C)(=O)=O)CC3)nc21 (configuration not stated) + CCn1c(-c2cccnc2C(C)OC)c2c3cc(ccc31)N1CCOC(CC(NC(=O)C(C(C)C)N(C)C(=O)C3(F)CCN(C(=O)C#CC(C)(C)N(C)C)CC3)C(=O)N3CCCC(N3)C(=O)OCC(C)(C)C2)C1	98.7
